Target System: human G9a enzyme (Homo sapiens, UniProt Q96KQ7)
Sequence (Q96KQ7 1-1210): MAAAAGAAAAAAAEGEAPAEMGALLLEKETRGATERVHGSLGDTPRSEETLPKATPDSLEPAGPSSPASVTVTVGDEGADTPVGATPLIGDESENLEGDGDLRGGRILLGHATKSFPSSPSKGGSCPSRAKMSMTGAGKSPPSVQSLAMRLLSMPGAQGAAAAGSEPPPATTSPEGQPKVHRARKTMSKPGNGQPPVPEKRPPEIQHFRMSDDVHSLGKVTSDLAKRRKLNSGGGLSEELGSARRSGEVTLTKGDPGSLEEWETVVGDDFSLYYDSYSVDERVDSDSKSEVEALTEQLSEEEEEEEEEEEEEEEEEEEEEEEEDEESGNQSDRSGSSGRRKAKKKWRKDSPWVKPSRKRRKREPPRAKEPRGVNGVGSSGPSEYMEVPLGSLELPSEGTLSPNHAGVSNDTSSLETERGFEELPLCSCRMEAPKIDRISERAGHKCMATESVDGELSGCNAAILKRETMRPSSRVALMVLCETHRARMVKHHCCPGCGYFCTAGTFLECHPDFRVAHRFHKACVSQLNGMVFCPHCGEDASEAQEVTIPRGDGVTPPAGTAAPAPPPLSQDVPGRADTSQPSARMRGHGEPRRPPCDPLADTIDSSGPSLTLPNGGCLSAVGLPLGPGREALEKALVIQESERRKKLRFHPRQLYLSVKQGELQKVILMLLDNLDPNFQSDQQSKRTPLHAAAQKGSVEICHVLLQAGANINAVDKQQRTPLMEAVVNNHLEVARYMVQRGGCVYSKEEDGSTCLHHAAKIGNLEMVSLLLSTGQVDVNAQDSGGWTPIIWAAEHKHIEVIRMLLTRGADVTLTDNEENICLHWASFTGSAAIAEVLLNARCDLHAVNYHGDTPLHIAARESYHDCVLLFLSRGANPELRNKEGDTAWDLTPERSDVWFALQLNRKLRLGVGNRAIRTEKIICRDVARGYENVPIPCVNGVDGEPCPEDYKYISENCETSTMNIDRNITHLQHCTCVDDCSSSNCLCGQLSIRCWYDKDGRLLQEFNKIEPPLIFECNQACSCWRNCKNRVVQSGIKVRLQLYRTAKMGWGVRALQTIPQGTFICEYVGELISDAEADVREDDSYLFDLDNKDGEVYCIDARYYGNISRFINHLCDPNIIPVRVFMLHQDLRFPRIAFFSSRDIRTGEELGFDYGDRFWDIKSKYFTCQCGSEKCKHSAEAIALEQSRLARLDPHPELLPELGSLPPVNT
pIC50: −log10 of the molar value.
Recorded Endpoint: pIC50

// solved cases for pIC50 follow
Which pIC50 value belongs to `COc1cc2c(NC3CC4(CCNCC4)C3)cc(-c3ccc(C)o3)nc2cc1OCC1CCNCC1` ? 5.00 to 6.00

Which pIC50 value belongs to `COc1cc2c(NCC3CCN(C)CC3)cc(-c3ccc(C)[nH]3)nc2cc1OCCCN1CCCC1` ? > 7.00

Which pIC50 value belongs to `COc1cc2c(NC3CCN(C(C)C)CC3)cc(C3CCCCC3)nc2cc1OCCCN1CCCC1` ? > 7.00

Which pIC50 value belongs to `COc1cc2c(NC3CCN(C)CC3)cc(-c3ccc4occc4c3)nc2cc1OCCCN1CCCC1` ? > 7.00

Which pIC50 value belongs to `CCc1ccc(-c2cc(NC3CC4(CCN(C)CC4)C3)c3cc(OC)c(OCCCN4CCCC4)cc3n2)o1` ? > 7.00

---
Which pIC50 value belongs to CCc1ccc(-c2cc(NC3CC4CCC(C3)N4C)c3cc(OC)c(OCCCN4CCCC4)cc3n2)o1 (centres unmarked) ? > 7.00

Which pIC50 value belongs to COc1cc2c(NC3CCNC(=O)C3)cc(-c3ccc(C)o3)nc2cc1OCCCN1CCCC1 (centres unmarked) ? 6.30 to 7.00

Which pIC50 value belongs to `COc1cc2c(NC3CCN(C)CC3)cc(-c3ccc(C)[nH]3)nc2cc1OCCCN1CCCC1` ? > 7.00

* * *

Tested on: LAL-CUN-2
Method Description: Cell proliferation assay, LAL-CUN-2 (ALL)
Format: cell-based
Conditions Used: ALL; Table 5 comparison
Recorded Endpoint: GI50

Which GI50 value belongs to COc1cc2c(NC3CCN(C)CC3)cc(-c3ccc(C)o3)nc2cc1OCCCN1CCCC1.O=C(O)C(F)(F)F [Compound 3-04] ? 100 to 1000 nM

Which GI50 value belongs to Nc1ncn([C@@H]2O[C@H](CO)[C@@H](O)[C@H]2O)c(=O)n1 [5-azacytidine, reference compound] ? ≥ 10000 nM

Which GI50 value belongs to COc1cc2nc(N3CCCN(C)CC3)nc(NC3CCN(Cc4ccccc4)CC3)c2cc1OC [BIX01294] ? 1000 to 10000 nM

Which GI50 value belongs to Nc1ncn([C@H]2C[C@H](O)[C@@H](CO)O2)c(=O)n1 [Decitabine, reference compound] ? ≥ 10000 nM

Which GI50 value belongs to COc1cc2c(NC3CCN(C(C)C)CC3)nc(C3CCCCC3)nc2cc1OCCCN1CCCC1 [UNC0638, reference compound] ? 1000 to 10000 nM

Which GI50 value belongs to COc1cc2c(NCC3CCN(C)CC3)cc(-c3ccc(C)o3)nc2cc1OCCCN1CCCC1 [Compound 3-07] ? 100 to 1000 nM

* * *

Entries and their IC50
Target System: UniProt Q96KQ7
Sequence (Q96KQ7 1-1210): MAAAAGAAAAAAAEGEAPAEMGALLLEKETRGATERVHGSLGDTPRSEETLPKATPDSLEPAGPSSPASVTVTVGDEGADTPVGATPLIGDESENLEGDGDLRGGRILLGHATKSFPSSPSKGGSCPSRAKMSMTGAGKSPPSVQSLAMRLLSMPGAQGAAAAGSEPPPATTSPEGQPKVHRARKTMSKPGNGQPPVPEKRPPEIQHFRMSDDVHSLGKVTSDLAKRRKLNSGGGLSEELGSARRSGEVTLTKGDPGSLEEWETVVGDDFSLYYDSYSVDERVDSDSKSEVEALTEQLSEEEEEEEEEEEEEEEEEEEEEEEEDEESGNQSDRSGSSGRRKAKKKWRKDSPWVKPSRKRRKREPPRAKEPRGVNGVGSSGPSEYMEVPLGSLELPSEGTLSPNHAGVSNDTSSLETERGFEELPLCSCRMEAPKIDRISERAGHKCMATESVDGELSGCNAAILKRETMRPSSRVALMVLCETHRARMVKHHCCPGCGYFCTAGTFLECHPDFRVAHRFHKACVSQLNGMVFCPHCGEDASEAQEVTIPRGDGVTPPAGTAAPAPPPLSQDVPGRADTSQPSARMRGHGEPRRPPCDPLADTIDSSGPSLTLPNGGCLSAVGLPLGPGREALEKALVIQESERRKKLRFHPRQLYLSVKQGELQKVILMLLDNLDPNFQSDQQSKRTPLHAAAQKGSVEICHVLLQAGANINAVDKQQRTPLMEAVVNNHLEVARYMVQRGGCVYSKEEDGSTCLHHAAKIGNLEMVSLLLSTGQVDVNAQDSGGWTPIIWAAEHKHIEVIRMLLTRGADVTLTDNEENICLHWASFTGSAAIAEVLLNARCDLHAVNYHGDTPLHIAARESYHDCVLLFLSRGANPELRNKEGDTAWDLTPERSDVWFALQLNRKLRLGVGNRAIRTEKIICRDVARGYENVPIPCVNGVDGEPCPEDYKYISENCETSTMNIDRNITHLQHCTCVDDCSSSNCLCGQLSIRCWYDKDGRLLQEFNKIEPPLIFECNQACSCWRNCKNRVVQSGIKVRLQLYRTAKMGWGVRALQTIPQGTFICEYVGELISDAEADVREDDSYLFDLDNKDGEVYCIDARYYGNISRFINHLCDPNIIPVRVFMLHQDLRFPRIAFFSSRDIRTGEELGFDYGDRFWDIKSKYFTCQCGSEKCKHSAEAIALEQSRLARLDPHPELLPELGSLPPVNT

// solved cases for IC50 follow
Observed IC50 on UniProt Q96KQ7 for `COc1cc2c(NC3CCN(C)CC3)cc(C)nc2cc1OCCCN1CCCC1` , please. < 100 nM

Observed IC50 on UniProt Q96KQ7 for `CCc1ccc(-c2cc(NC3CC4(CCN(C5CC5)CC4)C3)c3cc(OC)c(OCCCN4CCCC4)cc3n2)o1` , please. 1000 to 10000 nM

Observed IC50 on UniProt Q96KQ7 for CCc1ccc(-c2cc(NC3CCC34CCN(C3CC3)CC4)c3cc(OC)c(OCCCN4CCCC4)cc3n2)o1 (centres unmarked) , please. 500 to 1000 nM

---
Observed IC50 on UniProt Q96KQ7 for `COc1cc(NC2CCN(C)CC2)c2cc(OC)c(OCCCN3CCCC3)cc2n1` , please. 100 to 500 nM

Observed IC50 on UniProt Q96KQ7 for `COc1cc2c(NC3CC4(CCN(C)CC4)C3)cc(-c3ccc(C)[nH]3)nc2cc1OCCCN1CCCC1` , please. < 100 nM

Observed IC50 on UniProt Q96KQ7 for `COc1cc2c(NC3CCN(C)CC3)cc(-c3ccc(CO)o3)nc2cc1OCCCN1CCCC1` , please. < 100 nM

Observed IC50 on UniProt Q96KQ7 for `COc1cc2c(NC3CCN(C)CC3)cc(-c3ccn(C)n3)nc2cc1OCCCN1CCCC1` , please. < 100 nM

Observed IC50 on UniProt Q96KQ7 for `COc1cc2c(NC3CCN(C)CC3)cc(-c3ccco3)nc2cc1OCCCN1CCCC1` , please. < 100 nM
